experiment: AUC (0 to infinity) in Sprague-Dawley rat at 10 mg/kg, po by LC-MS/MS analysis; type: ADME, organism-based; settings: in vivo
measured.quantity: AUC(0-inf) (ng·h/mL)

>>> measured("C[C@@H](N(C)Cc1ccc(C#Cc2ccc(F)cc2F)cc1)[C@](O)(Cn1cncn1)c1ccc(F)cc1F")
1600

###

assay: Tmax in Sprague-Dawley rat at 3 mg/kg, iv by LC-MS/MS analysis; format: ADME, organism-based; conditions: in vivo
measured.quantity: Tmax (min)

>>> measured("C[C@@H](N(C)Cc1ccc(C#Cc2ccc(F)cc2F)cc1)[C@](O)(Cn1cncn1)c1ccc(F)cc1F")
4.98

###

experiment: Half-life in Sprague-Dawley rat at 3 mg/kg, iv by LC-MS/MS analysis; type: ADME, organism-based; settings: in vivo
measured.quantity: half-life

>>> measured("C[C@@H](N(C)Cc1ccc(C#Cc2ccc(F)cc2F)cc1)[C@](O)(Cn1cncn1)c1ccc(F)cc1F")
"6.57 h"

###

assay: Apparent volume of distribution in Sprague-Dawley rat at 3 mg/kg, iv by LC-MS/MS analysis; format: ADME, organism-based; conditions: in vivo, read-out: Vz
measured.quantity: Vd

>>> measured("C[C@@H](N(C)Cc1ccc(C#Cc2ccc(F)cc2F)cc1)[C@](O)(Cn1cncn1)c1ccc(F)cc1F")
"15.7 L/kg"

###

assay: Metabolic stability in human liver microsomes assessed as parent compound remaining preincubated for 10 mins followed by NADPH addition and measured after 60 mins by LC-MS/MS analysis; type: ADME, Microsome; conditions: time 70 min, read-out: Stability
measured.quantity: remaining at 1 h (%)

>>> measured("CN(Cc1ccc(I)cc1)CC(O)(Cn1cncn1)c1ccc(F)cc1F (centres undefined)")
13.1
>>> measured("CN(Cc1ccc(C#Cc2ccccc2)cc1)CC(O)(Cn1cncn1)c1ccc(F)cc1F (centres undefined)")
0.936
>>> measured("C[C@@H](N(C)Cc1ccc(C#Cc2ccc(F)cc2F)cc1)[C@](O)(Cn1cncn1)c1ccc(F)cc1F")
25.9
>>> measured("CN(Cc1ccc(C#Cc2ccc(F)cc2F)cc1)CC(O)(Cn1cncn1)c1ccc(F)cc1F (centres undefined)")
20.9

###

assay: Tmax in Sprague-Dawley rat at 10 mg/kg, po by LC-MS/MS analysis; format: ADME, organism-based; conditions: in vivo
measured.quantity: Tmax

>>> measured("C[C@@H](N(C)Cc1ccc(C#Cc2ccc(F)cc2F)cc1)[C@](O)(Cn1cncn1)c1ccc(F)cc1F")
"2.33 h"

###

tested on: Aspergillus fumigatus; test: Antifungal activity against Aspergillus fumigatus cgmcc 3.7795 assessed as inhibition of fungal growth by CLSI M27-A3 guidelines based method; type: functional
measured.quantity: MIC80 (µg/mL)

>>> measured("C[C@@H](N(C)Cc1ccc(C#Cc2ccc(I)cc2)cc1)[C@](O)(Cn1cncn1)c1ccc(F)cc1F")
0.2
>>> measured("C[C@@H](N(C)Cc1ccc(C#Cc2cc(F)c(Cl)cc2F)cc1)[C@](O)(Cn1cncn1)c1ccc(F)cc1F")
0.2
>>> measured("C[C@@H](N(C)Cc1ccc(C#Cc2ccc(Cl)cc2)cc1)[C@](O)(Cn1cncn1)c1ccc(F)cc1F")
0.1
>>> measured("Cc1ccc(C#Cc2ccc(CN(C)[C@H](C)[C@](O)(Cn3cncn3)c3ccc(F)cc3F)cc2)cc1")
0.1
>>> measured("CN(Cc1ccc(I)cc1)CC(O)(Cn1cncn1)c1ccc(F)cc1F (stereo not drawn)")
0.25
>>> measured("C[C@@H](N(C)Cc1ccc(C#Cc2cc(F)c(F)cc2F)cc1)[C@](O)(Cn1cncn1)c1ccc(F)cc1F")
0.2
>>> measured("C[C@@H](N(C)Cc1ccc(C#Cc2ccc(C#N)cc2)cc1)[C@](O)(Cn1cncn1)c1ccc(F)cc1F")
0.05
>>> measured("C[C@@H](N(C)Cc1ccc(C#Cc2ccc([N+](=O)[O-])cc2)cc1)[C@](O)(Cn1cncn1)c1ccc(F)cc1F")
0.05

###

assay: Cytotoxicity against HUVEC cells assessed as inhibition of cell growth incubated for 72 hrs by MTT assay; format: toxicity, cell-based; conditions: human
Listing: IC50 at 72 h of selected compounds
measured.quantity: IC50 at 72 h

>>> measured("C[C@@H](N(C)Cc1ccc(C#Cc2ccc(F)cc2F)cc1)[C@](O)(Cn1cncn1)c1ccc(F)cc1F")
"> 10 µM"
>>> measured("OC(Cn1cncn1)(Cn1cncn1)c1ccc(F)cc1F")
"> 40 µM"
>>> measured("CN(Cc1ccc(I)cc1)CC(O)(Cn1cncn1)c1ccc(F)cc1F (stereo not drawn)")
"> 10 µM"
